Values were extracted from PubChem BioAssay.

# assayProtocol: JC-1 mitochondrial signal, unstimulated MM1S myeloma – cell-based, JC-1 fluorescence, 24 h, 100 nL compound, profiling panel (AID 1170); note: test concentration not given here
# conditionInfo: MM1S mitochondrial potential, higher = more signal
Assign Fulfilled whenever z-score does not fall below -0.5; assign Not fulfilled whenever it does.

>>> classification("COC(=O)[C@@]1(Cc2ccc(F)cc2)[C@H]2c3cc(C(=O)N4CCCC4)n(CCc4ccccn4)c3C[C@H]2CN1C(=O)c1ccccc1")
"Not fulfilled"
>>> classification("COc1cc(C(O)C2C=CC3C(=O)N(c4ccccc4)C(=O)C3N2Nc2ccccc2)cc(OC)c1OC (stereo not drawn)")
"Fulfilled"
>>> classification("CC(C)C(=C=CC[C@H](O)c1ccccc1OCCO)C[C@H](O)COCc1ccccc1")
"Not fulfilled"
>>> classification("CCOC(=O)C1=C[C@@H](C(C)(C)C)N(S(=O)(=O)c2ccc(C)cc2)[C@H]1c1ccc(C#N)cc1")
"Not fulfilled"
>>> classification("CC=CC(O)C1C=CC2C(=O)NC(=O)C2N1Nc1ccc(Cl)cc1Cl (stereo not drawn)")
"Fulfilled"

Ask: Decide: is the reported value of z-score for Cc1ccc(C(C)CC(O)C2C=CC3C(=O)N(C)C(=O)C3N2Nc2ccccc2)o1 (stereo not drawn) equal to or greater than -0.5?
Reply: Fulfilled

Ask: Reported z-score at or above -0.5? `CC(C)N1C(=O)c2ccccc2[C@](C)(C(=O)NCC(F)(F)F)[C@@H]1c1ccc(CO)cc1`
Reply: Fulfilled

Ask: Could you verify whether the entry `COCCOC(=O)N1C(=O)[C@@]2(c3cc(C#CCNC(N)=O)ccc31)[C@H](C(=O)Nc1nc3ccccc3s1)[C@H]1C(=O)O[C@H](c3ccccc3)[C@H](c3ccccc3)N1[C@@H]2c1ccccc1OCCO` shows z-score of no less than -0.5?
Reply: Not fulfilled
